protocol: The drug is tested on WLS-082 corresponding to human gut metagenome with ENA study accession number: PRJEB37062 and ENA sample accession number: ERS12561751 for biotransformation under anaerobic condition. The drug concentrations were measured over 9 timepoints collected between 0 and 24 hours of incubation by liquid-chromatography-coupled mass spectrometry (LC–MS); note: call rule not given here
testContext: 2 µM
measuredEndpoint: Bacterial Biotransformation

Previously resolved entries follow.
>  <molecule>
CN1[C@@H]2CC[C@H]1C[C@@H](OC(=O)c1c[nH]c3ccccc13)C2

>  <Bacterial Biotransformation>
Compound NOT metabolized

$$$$
>  <molecule>
CCc1oc2ccccc2c1C(=O)c1cc(Br)c(O)c(Br)c1

>  <Bacterial Biotransformation>
Compound metabolized

$$$$
>  <molecule>
Cc1ccccc1C(OCCN(C)C)c1ccccc1.O=C(O)CC(O)(CC(=O)O)C(=O)O (centres undefined) [ORPHENADRINE CITRATE]

>  <Bacterial Biotransformation>
Compound NOT metabolized

$$$$
>  <molecule>
c1ccc2[nH]c(-c3cscn3)nc2c1

>  <Bacterial Biotransformation>
Compound NOT metabolized

$$$$
>  <molecule>
CN1CCC(OC(c2ccccc2)c2ccccc2)CC1

>  <Bacterial Biotransformation>
Compound NOT metabolized

$$$$
>  <molecule>
C[C@@H](c1ncncc1F)[C@](O)(Cn1cncn1)c1ccc(F)cc1F

>  <Bacterial Biotransformation>
Compound metabolized

$$$$
>  <molecule>
Br.CN1CCC[C@@H]1Cc1c[nH]c2ccc(CCS(=O)(=O)c3ccccc3)cc12 [ELETRIPTAN HYDROBROMIDE]

>  <Bacterial Biotransformation>
Compound NOT metabolized

$$$$
>  <molecule>
CCCN(CCC)CCc1cccc2c1CC(=O)N2

>  <Bacterial Biotransformation>
Compound NOT metabolized

$$$$

We next turn to a different molecule, shown below.
Quick note, Bacterial Biotransformation for O=C(O)c1cc(/N=N/c2ccc(S(=O)(=O)Nc3ccccn3)cc2)ccc1O landed at Compound metabolized

----------
testContext: human gut metagenome, 24 h, 2 µM
measuredEndpoint: Bacterial Biotransformation

Worked examples follow.
>  <compound>
Nc1nnc(-c2cccc(Cl)c2Cl)c(N)n1

>  <Bacterial Biotransformation>
Compound NOT metabolized

$$$$
>  <compound>
CC(=O)OCC(=O)[C@@]1(OC(C)=O)[C@@H](C)C[C@H]2[C@@H]3C[C@H](F)C4=CC(=O)C=C[C@]4(C)[C@@]3(F)[C@@H](O)C[C@@]21C [DIFLORASONE DIACETATE]

>  <Bacterial Biotransformation>
Compound metabolized

$$$$
>  <compound>
CC(C)c1nc(N(C)S(C)(=O)=O)nc(-c2ccc(F)cc2)c1/C=C/[C@@H](O)C[C@@H](O)CC(=O)[O-].CC(C)c1nc(N(C)S(C)(=O)=O)nc(-c2ccc(F)cc2)c1/C=C/[C@@H](O)C[C@@H](O)CC(=O)[O-].[Ca+2]

>  <Bacterial Biotransformation>
Compound metabolized

$$$$
>  <compound>
CC(=O)Oc1ccc(C(c2ccc(OC(C)=O)cc2)c2ccccn2)cc1

>  <Bacterial Biotransformation>
Compound metabolized

$$$$
>  <compound>
C[N+]12CCC(CC1)C(OC(=O)C(O)(c1ccccc1)c1ccccc1)C2.[Br-] (stereo not given) [CLIDINIUM BROMIDE]

>  <Bacterial Biotransformation>
Compound metabolized

$$$$
>  <compound>
CN1[C@@H]2CC[C@H]1C[C@@H](OC(=O)c1c[nH]c3ccccc13)C2

>  <Bacterial Biotransformation>
Compound NOT metabolized

$$$$

So for CC(C)(C)NCC(O)COc1cccc2c1CC(O)C(O)C2 (stereo not given) , the logged Bacterial Biotransformation turned out to be Compound metabolized

Recorded result, CCN(CC)C(=O)C1(c2ccccc2)CC1CN (stereo not given) , Bacterial Biotransformation: Compound NOT metabolized

Looking up CC(=O)CCCCn1c(=O)c2c(ncn2C)n(C)c1=O , I found its Bacterial Biotransformation recorded as Compound metabolized

Data point: COc1ccc2cc([C@H](C)C(=O)O)ccc2c1 ; Bacterial Biotransformation = Compound metabolized

// field: Bacterial Biotransformation; key: O=C(CCCN1CCC2(CC1)C(=O)NCN2c1ccccc1)c1ccc(F)cc1 ; value = Compound NOT metabolized

----------
protocol: The drug is tested on Z-008 corresponding to metagenome with ENA study accession number: PRJEB37062 and ENA sample accession number: ERS12561808 for biotransformation under anaerobic condition. The drug concentrations were measured over 9 timepoints collected between 0 and 24 hours of incubation by liquid-chromatography-coupled mass spectrometry (LC–MS)
testContext: 2 µM

>  <compound>
CC(C)(C)NC[C@H](O)COc1nsnc1N1CCOCC1.O=C(O)/C=C\C(=O)O [TIMOLOL MALEATE]

>  <Bacterial Biotransformation>
Compound NOT metabolized

$$$$
>  <compound>
O=C1CC2(CCCC2)CC(=O)N1CCCCN1CCN(c2ncccn2)CC1

>  <Bacterial Biotransformation>
Compound NOT metabolized

$$$$
>  <compound>
COc1ccc2cc([C@H](C)C(=O)O)ccc2c1

>  <Bacterial Biotransformation>
Compound NOT metabolized

$$$$

----------
testContext: human gut metagenome, 24 h, 2 µM
measuredEndpoint: Bacterial Biotransformation

>  <molecule>
COc1ccc([C@@H]2Sc3ccccc3N(CCN(C)C)C(=O)[C@@H]2OC(C)=O)cc1 [DILTIAZEM]

>  <readoutValue>
Compound NOT metabolized

$$$$
>  <molecule>
COC1=C(OC)C(=O)C(CCCCCCCCCCO)=C(C)C1=O [IDEBENONE]

>  <readoutValue>
Compound NOT metabolized

$$$$
>  <molecule>
CCCC(C)(COC(N)=O)COC(=O)NC(C)C (configuration not stated) [CARISOPRODOL]

>  <readoutValue>
Compound metabolized

$$$$
>  <molecule>
CCc1cccc2c3c([nH]c12)C(CC)(CC(=O)O)OCC3 (configuration not stated) [ETODOLAC]

>  <readoutValue>
Compound metabolized

$$$$

Kindly consider the entry below.
# Bacterial Biotransformation (molecule: CCOC(=O)C1=C(C)NC(C)=C(C(=O)OC)C1c1cccc([N+](=O)[O-])c1 (configuration not stated) [NITRENDIPINE] ) is Compound metabolized

----------
testContext: human gut metagenome, 24 h, 2 µM
measuredEndpoint: Bacterial Biotransformation

Some solved cases for reference:
>  <compound>
CN1CCC[C@@H]1CCO[C@](C)(c1ccccc1)c1ccc(Cl)cc1.O=C(O)/C=C/C(=O)O [CLEMASTINE FUMARATE]

>  <measuredEndpoint>
Bacterial Biotransformation

>  <readoutValue>
Compound NOT metabolized

$$$$
>  <compound>
COC(=O)[C@H](c1ccccc1Cl)N1CCc2sccc2C1.O=S(=O)(O)O [CLOPIDOGREL BISULFATE]

>  <measuredEndpoint>
Bacterial Biotransformation

>  <readoutValue>
Compound metabolized

$$$$
>  <compound>
CCOC(=O)C1=C(C)NC(C)=C(C(=O)OC)C1c1cccc([N+](=O)[O-])c1 (stereo not drawn)

>  <measuredEndpoint>
Bacterial Biotransformation

>  <readoutValue>
Compound metabolized

$$$$
>  <compound>
O=C(CCCN1CCC2(CC1)C(=O)NCN2c1ccccc1)c1ccc(F)cc1

>  <measuredEndpoint>
Bacterial Biotransformation

>  <readoutValue>
Compound NOT metabolized

$$$$
>  <compound>
CC12CC3CC(C)(C1)CC(N)(C3)C2 [MEMANTINE]

>  <measuredEndpoint>
Bacterial Biotransformation

>  <readoutValue>
Compound NOT metabolized

$$$$
>  <compound>
CC(=O)CCCCn1c(=O)c2c(ncn2C)n(C)c1=O

>  <measuredEndpoint>
Bacterial Biotransformation

>  <readoutValue>
Compound NOT metabolized

$$$$
>  <compound>
CN1CCN(C2=Nc3ccccc3Oc3ccc(Cl)cc32)CC1.O=C(O)CCC(=O)O [LOXAPINE SUCCINATE]

>  <measuredEndpoint>
Bacterial Biotransformation

>  <readoutValue>
Compound NOT metabolized

$$$$

Let's switch to this compound now.
Looking up OC(c1cc(C(F)(F)F)nc2c(C(F)(F)F)cccc12)C1CCCCN1 (stereo not drawn) , I found its Bacterial Biotransformation recorded as Compound NOT metabolized

----------
testContext: human gut metagenome, 24 h, 2 µM
measuredEndpoint: Bacterial Biotransformation

Example entries and their recorded answers appear below.
>  <compound>
CN(C/C=C/C#CC(C)(C)C)Cc1cccc2ccccc12

>  <Bacterial Biotransformation>
Compound NOT metabolized

$$$$
>  <compound>
CCN(C(C)=O)c1cccc(-c2ccnc3c(C#N)cnn23)c1

>  <Bacterial Biotransformation>
Compound metabolized

$$$$
>  <compound>
CCOc1cc(CC(=O)N[C@@H](CC(C)C)c2ccccc2N2CCCCC2)ccc1C(=O)O [REPAGLINIDE]

>  <Bacterial Biotransformation>
Compound metabolized

$$$$
>  <compound>
CN(CCOc1ccc(CC2SC(=O)NC2=O)cc1)c1ccccn1.O=C(O)/C=C\C(=O)O (stereo unspecified) [ROSIGLITAZONE MALEATE]

>  <Bacterial Biotransformation>
Compound metabolized

$$$$
>  <compound>
C=CC[C@@H]1/C=C(\C)C[C@H](C)C[C@H](OC)[C@H]2O[C@@](O)(C(=O)C(=O)N3CCCC[C@H]3C(=O)O[C@H](/C(C)=C/[C@@H]3CC[C@@H](O)[C@H](OC)C3)[C@H](C)[C@@H](O)CC1=O)[C@H](C)C[C@@H]2OC.O

>  <Bacterial Biotransformation>
Compound NOT metabolized

$$$$

The compound OCCN(CCO)c1nc(N2CCCCC2)c2nc(N(CCO)CCO)nc(N3CCCCC3)c2n1 showed Bacterial Biotransformation equal to Compound metabolized

Measured Bacterial Biotransformation, CNNCc1ccc(C(=O)NC(C)C)cc1 : Compound metabolized

Entry CC1Cc2ccccc2N1NC(=O)c1ccc(Cl)c(S(N)(=O)=O)c1 (stereo unspecified) [INDAPAMIDE] , Bacterial Biotransformation reported as Compound NOT metabolized

Memo: CC(CCc1ccccc1)NCC(O)c1ccc(O)c(C(N)=O)c1 (stereo unspecified) , reported Bacterial Biotransformation: Compound NOT metabolized

The measured Bacterial Biotransformation associated with CC(=O)OCC(CCn1cnc2cnc(N)nc21)COC(C)=O reads Compound metabolized
